test-target: T1, Cbx2 chromodomain, Cbx2-(9–66) (human, UniProt Q14781 9-66)
T1 sequence: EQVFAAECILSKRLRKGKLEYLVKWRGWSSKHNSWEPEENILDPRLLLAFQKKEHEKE
measurement-description: fluorescence polarisation
Square brackets hold non-standard residues; d marks the D form. Ends that are not written are not given here. Lys(Me3) = C[N+](C)(C)CCCC[C@H](N)C(=O)O
Please provide measured pKd for the entries that follow.
Numbers only, as −log10 of the molar value.

binder	pKd
fluorescein-QLATKTAR[Lys(Me3)]SAPATG [H3K27Me3A24T peptide (QLATKTARK(me3)SAPATG), fluorescein-labeled]	3.48

State, in one line, measured pKd of QLATKAARKSAPATG (trimethyllysine at 27; fluorescein on the N-terminus) [H3K27Me3 peptide (QLATKAARK(me3)SAPATG), fluorescein-labeled] 3.73
